Hey, just so you know, these numbers are from PubChem BioAssay (NCI).

# System: SF-295 CNS
# Protocol notes: NCI-60 one-dose screen, 48 h (100 = growth as untreated, 0 = no growth, -100 = all killed)
# Cond: 10 µM unless noted
Compounds without any hit were thinned out: in the full panel of roughly 83,000, 20% have a hit. Activity calls are given as the source filed them. The calls were made as follows: active = growth percent below 10; inactive = the rest.
Assignment: determine reported growth for the given compounds.

Problem: # query: growth of entry CNC(=O)c1cc(Oc2ccc3nc(NC(=O)c4ccc(N5CCOCC5)c(C(F)(F)F)c4)sc3c2)ccn1
Result: 26.5% (inactive)

Problem: # query: growth of entry COc1cccc(C(=O)Nc2cccc(C#Cc3cccc4[nH]nc(N)c34)c2)c1
Result: 54.9% (inactive)

Problem: # query: growth of entry O=C(CSc1nnc(-c2ccc3nc(-c4ccccc4)[nH]c3c2)o1)Nc1ccc(C(=O)/C=C/c2ccccc2)cc1
Result: 109% (inactive)

Problem: # query: growth of entry CCCCNNC(=O)c1ccc(-c2cccc(F)c2F)cc1
Result: 28.2% (inactive)

Problem: # query: growth of entry CC1(C)[C@@H](O)CC[C@]2(C)[C@H]3CC[C@@H]4[C@H]5[C@H](C(=O)/C=C\c6ccccn6)CC[C@]5(O)CC[C@@]4(C)[C@]3(C)CC[C@@H]12
Result: 73.6% (inactive)
